System: OVCAR-3 ovarian
Test: NCI tumour cell line growth inhibition, 48 h
experimental.readout: TGI

| molecule | assayed.system | result |
| --- | --- | --- |
| COc1ccc(C(=O)/C=C/c2ccc(OCC(=O)O)cc2)cc1 | OVCAR-3 ovarian | > 100 µM |
| COc1ccc(/C(=N\O)c2cc(OC)c(OC)c(OC)c2)c(OC)c1N | OVCAR-3 ovarian | 7.8 µM |
| COc1cc(Nc2ncc3c(C)nc(-c4cccc(Oc5ccccc5)c4)n3n2)cc(OC)c1OC | OVCAR-3 ovarian | 11.2 µM |
| CC(=O)N1CC[N+](C)(CCCCN2c3ccccc3Sc3cc(N=[N+]=[N-])ccc32)CC1 | OVCAR-3 ovarian | > 100 µM |
| Nc1ccc(C(=O)NN2C(=O)C(Cl)C2c2ccc([N+](=O)[O-])cc2)cc1 (centres undefined) | OVCAR-3 ovarian | 18.4 µM |
| O=C(N/N=c1/ccoc2cccnc12)N1CCN(c2ncccn2)CC1 | OVCAR-3 ovarian | 4.46 µM |
| COc1ccc(-c2oc3cc(OC)c(OC)c(OC)c3c(=O)c2OC)cc1OC | OVCAR-3 ovarian | > 100 µM |
| CC(=O)OCC1OC(n2c3c(cc(C#N)c2=S)CCCCCC3)C(OC(C)=O)C(OC(C)=O)C1OC(C)=O (centres undefined) | OVCAR-3 ovarian | > 100 µM |
| COC(=O)c1cc2c3ccccc3n3c(=O)c4cc5cc(OC)c(N(S(=O)(=O)c6ccc(C)cc6)S(=O)(=O)c6ccc(C)cc6)cc5nc4c(n1)c23 | OVCAR-3 ovarian | > 100 µM |
